test: experimental lipophilicity by RP-TLC (RM0, logPTLC); format: physicochemical; details: RP-TLC, RP 18F254S, acetone/TRIS buffer pH 7.4
Decide using −b (slope of RM = RM0 + bC): a value greater than or equal to 0.02 is True, a smaller one is False.

### Prompt Is −b (slope of RM = RM0 + bC) at least 0.02? Consider CCN(CC)CCN1c2ncccc2Sc2cccnc21
### Response False

### Prompt In plain terms: is recorded −b (slope of RM = RM0 + bC) at least 0.02 for O=C(c1ccccc1)c1ccccc1 [IV, benzophenone, reference compound] ?
### Response True

### Prompt Check this molecule for −b (slope of RM = RM0 + bC) at or above 0.02: C=CCN1c2ncccc2Sc2cccnc21
### Response True

### Prompt Item c1ccc2cc3ccccc3cc2c1 [V, anthracene, reference compound] with −b (slope of RM = RM0 + bC) of 0.02 or above?
### Response True

### Prompt Is the recorded value of −b (slope of RM = RM0 + bC) equal to or greater than 0.02 for this molecule? CN1c2ncccc2Sc2cccnc21
### Response False

### Prompt Item CC(CN(C)C)CN1c2ncccc2Sc2cccnc21 (stereo not shown) with −b (slope of RM = RM0 + bC) of 0.02 or above?
### Response True

### Prompt Would you say CC(=O)Nc1ccccc1 [I, acetanilide, reference compound] shows −b (slope of RM = RM0 + bC) at minimum 0.02?
### Response False

### Prompt Check if −b (slope of RM = RM0 + bC) >= 0.02 (inclusive). Item: CN1CCCCC1CCN1c2ncccc2Sc2cccnc21 (stereo not shown)
### Response True

----------
experiment: experimental lipophilicity by RP-TLC (RM0, logPTLC); format: physicochemical; details: RP-TLC, extrapolation to zero acetone concentration, TRIS buffer pH 7.4
readoutLabel: RM0 (relative lipophilicity parameter)
Reply with the value as a number alone.

### Prompt Answer with the recorded RM0 (relative lipophilicity parameter) of CN1c2ncccc2Sc2cccnc21 [Compound 2] only.
### Response 1.3850

### Prompt Identify measured RM0 (relative lipophilicity parameter) corresponding to C=CCN1c2ncccc2Sc2cccnc21 [Compound 3]
### Response 1.4052

### Prompt Return RM0 (relative lipophilicity parameter) for the following compound: c1cnc2c(c1)Sc1cccnc1N2CCN1CCCC1 [Compound 9]
### Response 1.9434

### Prompt Fill in reported RM0 (relative lipophilicity parameter) for this entry: CC(=O)c1ccc(Br)cc1 [III, 4-bromoacetophenone, reference compound]
### Response 2.281

### Prompt Determine from records and report RM0 (relative lipophilicity parameter) for CC(=O)Nc1ccccc1 [I, acetanilide, reference compound]
### Response 1.011

### Prompt Supply reported RM0 (relative lipophilicity parameter) belonging to this compound: C#CCN1c2ncccc2Sc2cccnc21 [Compound 4]
### Response 1.4720

### Prompt In one line, give reported RM0 (relative lipophilicity parameter) of the entry c1cnc2c(c1)Sc1cccnc1N2 [Compound 1, 10H-1,9-diazaphenothiazine] .
### Response 1.1970

### Prompt Answer with the recorded RM0 (relative lipophilicity parameter) for the compound listed here: c1ccc2cc3ccccc3cc2c1 [V, anthracene, reference compound]
### Response 3.588

### Prompt Look up and state reported RM0 (relative lipophilicity parameter) for CCN(CC)CCN1c2ncccc2Sc2cccnc21 [Compound 7]
### Response 1.7934

### Prompt Respond only with RM0 (relative lipophilicity parameter) recorded for c1ccc(CN2c3ncccc3Sc3cccnc32)cc1 [Compound 5, 10-benzyl-1,9-diazaphenothiazine]
### Response 1.7877

----------
assay: experimental lipophilicity by RP-TLC (RM0, logPTLC); type: physicochemical; conditions: 1,9-diazaphenothiazines, comparison table
readoutLabel: logPTLC, 1,9-Diaza
// no unit, no text: just the number

### Prompt Read off the recorded logPTLC, 1,9-Diaza for CN(C)CCCN1c2ncccc2Sc2cccnc21
### Response 2.080

### Prompt Specify logPTLC, 1,9-Diaza for C#CCN1c2ncccc2Sc2cccnc21 and stop.
### Response 1.747

### Prompt Give the reported value of logPTLC, 1,9-Diaza for this record: c1cnc2c(c1)Sc1cccnc1N2 [Compound 1, 10H-1,9-diazaphenothiazine]
### Response 1.476

### Prompt Tell me its logPTLC, 1,9-Diaza given C=CCN1c2ncccc2Sc2cccnc21 as the entry.
### Response 1.682

----------
Can you tell me chromatographic logP for the items I'm about to list?
assay: experimental lipophilicity by RP-TLC (RM0, logPTLC); assay type: physicochemical; settings: pH 7.4; RM0 converted with the calibration curve of standards I–V
Please give only the number in your answer, with no unit.

### Prompt Dear colleague, please send me the reported chromatographic logP for c1cnc2c(c1)Sc1cccnc1N2CCN1CCCCC1 when you can.
### Response 2.25

### Prompt Complete the entry with chromatographic logP for C=CCN1c2ncccc2Sc2cccnc21
### Response 1.68

### Prompt Give the reported chromatographic logP for this molecule. C#CCN1c2ncccc2Sc2cccnc21
### Response 1.75

### Prompt Identify measured chromatographic logP corresponding to c1ccc(CN2c3ncccc3Sc3cccnc32)cc1
### Response 2.06

### Prompt Tell us which chromatographic logP value is on record for CN1c2ncccc2Sc2cccnc21
### Response 1.66

### Prompt Name the recorded chromatographic logP of the item c1cnc2c(c1)Sc1cccnc1N2CCN1CCCC1 in your answer.
### Response 2.21

### Prompt Report chromatographic logP, nothing else, for this molecule: CC(CN(C)C)CN1c2ncccc2Sc2cccnc21 (centres unmarked)
### Response 2.17

### Prompt Quickly give me recorded chromatographic logP for CCN(CC)CCN1c2ncccc2Sc2cccnc21
### Response 2.06

### Prompt Tell me chromatographic logP reported for c1cnc2c(c1)Sc1cccnc1N2 [Compound 1, 10H-1,9-diazaphenothiazine]
### Response 1.48

### Prompt Find the measured chromatographic logP of CN1CCCCC1CCN1c2ncccc2Sc2cccnc21 (centres unmarked) and report it.
### Response 2.27

### Prompt Determine from records and report chromatographic logP for CN(C)CCCN1c2ncccc2Sc2cccnc21
### Response 2.08

----------
experiment: experimental lipophilicity by RP-TLC (RM0, logPTLC); type: physicochemical; conditions: RP-TLC, extrapolation to zero acetone concentration, TRIS buffer pH 7.4
Consider the following compounds; for each one, report its RM0 (relative lipophilicity parameter).
Could you keep your reply to the number by itself?

### Prompt Consider the compound CN(C)CCCN1c2ncccc2Sc2cccnc21 . State its measured RM0 (relative lipophilicity parameter).
### Response 1.8096

### Prompt Assign RM0 (relative lipophilicity parameter) to the following record: CN1CCCCC1CCN1c2ncccc2Sc2cccnc21 (stereo not shown)
### Response 1.9988

### Prompt Using the record for c1cnc2c(c1)Sc1cccnc1N2CCN1CCCCC1 , state its measured RM0 (relative lipophilicity parameter).
### Response 1.9781

### Prompt Quick one: give measured RM0 (relative lipophilicity parameter) for CC(CN(C)C)CN1c2ncccc2Sc2cccnc21 (stereo not shown)
### Response 1.8961

----------
For each of the compounds below, state its −b (slope of RM = RM0 + bC).
test: experimental lipophilicity by RP-TLC (RM0, logPTLC); format: physicochemical; conditions: RP-TLC, RP 18F254S, acetone/TRIS buffer pH 7.4

### Prompt Please report −b (slope of RM = RM0 + bC) for the following compound: CC(=O)c1ccccc1 [II, acetophenone, reference compound]
### Response 0.019

### Prompt Give the reported value of −b (slope of RM = RM0 + bC) for this record: c1cnc2c(c1)Sc1cccnc1N2CCN1CCCCC1 [Compound 10]
### Response 0.0214

### Prompt Answer with the recorded −b (slope of RM = RM0 + bC) of c1cnc2c(c1)Sc1cccnc1N2CCN1CCCC1 [Compound 9] only.
### Response 0.0123

### Prompt Annotate the compound CC(=O)c1ccc(Br)cc1 [III, 4-bromoacetophenone, reference compound] with its measured −b (slope of RM = RM0 + bC).
### Response 0.033

### Prompt Provide one value: measured −b (slope of RM = RM0 + bC) of c1cnc2c(c1)Sc1cccnc1N2 [Compound 1, 10H-1,9-diazaphenothiazine]
### Response 0.0205

### Prompt Specify measured −b (slope of RM = RM0 + bC) for CN(C)CCCN1c2ncccc2Sc2cccnc21 [Compound 6] .
### Response 0.0170
